# assay-text: Utilization test in vivo, intravenous instillation to healthy volunteers (blood sugar, insulin, urine)
# Set-up: species or system human
# condition-summary: human, urine, 50000 mg; 50 g as 10 w/v % aqueous solution, intravenous instillation, 2 healthy volunteers; read-out: amount of glucose in the urine
quantity: dose excreted

| molecule | quantity | endpoint-result |
| --- | --- | --- |
| OC[C@H]1OC(O)[C@H](O)[C@@H](O)[C@@H]1O (stereo partly drawn) [glucose, reference compound] | dose excreted | < 10% |

Prompt: Need dose excreted of OC[C@H]1O[C@@H](O[C@H]2O[C@H](CO)[C@@H](O)[C@H](O)[C@H]2O)[C@H](O)[C@@H](O)[C@@H]1O [neotrehalose, O-α-D-glucopyranosyl β-D-glucopyranoside] , thanks.
Response: < 20%

Prompt: Next molecule up: OC[C@H]1O[C@H](O[C@H]2[C@H](O)[C@@H](O)[C@H](O)O[C@@H]2CO)[C@H](O)[C@@H](O)[C@@H]1O [Maltose, reference compound]
Response: < 20%
